Data provenance: patent US6448273B1

assay: pKa of the ligand; assay type: physicochemical; settings: method marked (s), second pKa; read-out: pKa, second value (s)
Structures can show the parent of a compound that is named as a salt.
Reported values of pKa for individual entries

Molecule: Cn1ccc(=O)c(O)c1CO [CP364, hydrochloride]
Val: 9.12

Molecule: O=c1ccn(CCO)c(C(O)c2ccccc2)c1O (stereo not drawn) [Novartis bidentate ligand (3), reference compound]
Val: 8.39

Now for another entry.
The molecule listed as Cc1cc(=O)c(O)c(C(=O)NC(C)C)n1C [CP504, hydrochloride] has a reported pKa of 8.56

###

Where a name gives a salt, the structure may show the parent alone.
Parameter measured: melting point

See these solved cases before continuing.
Compound: O=C(OCCCn1ccc(=O)c(O)c1CO)c1ccccc1 (as salt: hydrochloride)
melting point: 142 to 143 °C
--
Compound: COCc1cc(=O)c(O)c(COC)n1C (as salt: hydrochloride)
melting point: 161 to 163 °C
--
Compound: Cc1cc(=O)c(O)c(CO)n1C (as salt: hydrochloride)
melting point: 140 to 143 °C
--
Compound: CCn1c(C)cc(=O)c(O)c1COC (as salt: hydrochloride)
melting point: 174 to 176 °C

The compound listed as Cn1ccc(=O)c(O)c1CO (as salt: hydrochloride) has a reported melting point of 157 to 159 °C

The compound listed as CCC(OC)c1c(O)c(=O)cc(C)n1C (stereo not drawn) (as salt: hydrochloride) has a reported melting point of 225 to 227 °C

The compound listed as CCn1ccc(=O)c(O)c1CO (as salt: hydrochloride) has a reported melting point of 168 to 169 °C

The compound listed as Cc1cc(=O)c(O)c(C(C)O)n1C (stereo not drawn) (as salt: hydrochloride) has a reported melting point of 208 to 212 °C

The compound listed as Cc1cc(=O)c(O)c(C(=O)N(C)C)n1C (as salt: hydrochloride) has a reported melting point of 219 °C (dec.)
